These data points were gathered from paper PMC5360416.

test: Pharmacokinetics in adult male SD rats; format: in vivo, rat; conditions: male, Sprague-Dawley, rat, plasma, iv, 6 mg/kg
Where a name gives a salt, the structure may show the parent alone.
Measured quantity: AUC(0-inf) (ng·h/mL)
Give the quantity in ng·h/mL, number only.

// AUC(0-inf) value for O=S(=O)(c1cccc2cnccc12)N1CCCNCC1 [Fasudil, Fasudil hydrochloride] : 27600

====

experiment: Pharmacokinetics in adult male SD rats; format: in vivo, rat; details: male, Sprague-Dawley, rat, plasma, iv, 6 mg/kg
Counter-ions that a name gives are not always drawn.
Measured quantity: Cmax (ng/mL)
Give the quantity in ng/mL, number only.

// Cmax value for O=S(=O)(c1cccc2cnccc12)N1CCCNCC1 [Fasudil, Fasudil hydrochloride] : 3780

====

experiment: Pharmacokinetics in adult male SD rats; format: in vivo, rat; conditions: male, Sprague-Dawley, rat, plasma, inhaled or intranasal, 6 mg/kg
Structures can show the parent of a compound that is named as a salt.
Measured quantity: AUC(0-inf) (ng·h/mL)
Give the quantity in ng·h/mL, number only.

// AUC(0-inf) value for O=S(=O)(c1cccc2cnccc12)N1CCCNCC1 [Fasudil, Fasudil hydrochloride] : 21700
